- Test system: SK-MEL-2 melanoma
- test_name: NCI tumour cell line growth inhibition, 48 h
Form field: TGI (one value per entry).
Give just the numeric value; µM need not be written.

Sure, the documented TGI for CC(=O)/C=C/c1ccc(N(CCO)Cc2ccc(C(C)(C)C)cc2)cc1 is 233

The value of TGI measured for the compound COc1nc2c(c(=O)[nH]1)N=C(c1ccc(Cl)cc1)CC(c1ccccc1)N2 (centres undefined) turned out to be 60.1

TGI in this record for CC(=O)c1cccc(Nc2nc3ccccc3c3[nH]c4ccccc4c23)c1 : 24.2

So, CC1OC(CC2C=CCc3c(O)c4c(c(O)c32)C(=O)c2ccccc2C4=O)CC(NC(=O)C(F)(F)F)C1O (centres undefined) ? Its TGI was 30.2

###

- Test system: IGROV1 ovarian
- test_name: NCI tumour cell line growth inhibition, 48 h
observation_type: TGI

compound | TGI
CCN1C/C(=C\c2ccc(Cl)cc2)c2[nH]c(=O)c(C#N)c(-c3ccc(Cl)cc3)c2C1 | > 100 µM
CN(C)C/C=C/C(=O)Nc1cc2c(Nc3cccc(Cl)c3F)ncnc2cc1OCCOC(F)F | 1.07 µM
c1ccc(COC[C@H]2C3OCC([C@H](OCc4ccccc4)[C@H]3OCc3ccccc3)N2Cc2ccccc2)cc1 (some centres undefined) | > 100 µM
Nc1nc(N)c(-c2ccc(Cl)c(Cl)c2)c(CP(Cl)(Cl)(Cl)Br)n1 | 61.8 µM

Form field TGI, entry CC(=O)OCC1=CC2CCC3C(C)(CCC[C@]3(C)COC(C)=O)C23CC[C@H]1C3 (some centres undefined) : > 100 µM

COc1cc2c(cc1OC)[C@H]1C(COC(=O)Nc3ccccc3)CN1CC2 (some centres undefined) yielded TGI of > 100 µM

The reported value for COc1ccc(NC(=O)NNS(=O)(=O)c2ccc(C)cc2)cc1 in terms of TGI is > 100 µM

Reported TGI ( C=C1C(O)C2CC(C)(C)C(=O)C2=C(CC(C)C)C12CC2 (centres undefined) ) = > 100 µM

For record Oc1ccc(/C=N/NC(=S)Nc2cccnc2)nc1 the listed TGI is > 100 µM

response.value for C[C@]12CC[C@H](O)CC1=CC[C@@H]1[C@@H]2CC[C@]2(C)NC(=O)/C(=C\c3ccccc3)C[C@@H]12 (field: TGI) = 33.8 µM

###

- Test system: UACC-62 melanoma
- test_name: NCI tumour cell line growth inhibition, 48 h
observation_type: TGI

molecule | TGI
COC(=O)/C(=N\N)C(C(=O)C(=O)Nc1nc(=S)[nH][nH]1)c1nc2ccc([N+](=O)[O-])cc2[nH]c1=O (stereo not given) | > 100 µM
CC(=N\O)/C(C)=N/O.CC(=N\O)/C(C)=N/O.[Fe].[NH2-].c1c[nH]cn1 | > 100 µM
Cc1ccc(NC(=O)CCC(=O)C2Cc3ccccc3C2=O)cc1C (stereo not given) | > 100 µM
Cc1ccc(O)c(C(c2cc(C)ccc2O)c2cc([N+](=O)[O-])ccc2O)c1 | 36.6 µM

// moving on: another record for TGI
The value of TGI recorded for NS(=O)(=O)c1cc(C(=O)O)c(Cl)c([N+](=O)[O-])c1Cl when tested on UACC-62 melanoma reads > 100 µM

###

- Tested on: HCT-15 colon
- test_name: NCI tumour cell line growth inhibition, 48 h
Entries annotated with measured TGI

In the examples that follow, each entry is paired with its recorded TGI.
molecule | observation_type | result
CC(=N\O)/C(C)=N/O.CC(=N\O)/C(C)=N/O.[Fe].[NH2-].c1c[nH]cn1 | TGI | > 100 µM
c1ccc(/C(=N\Nc2nc3ccccc3s2)c2ccccn2)cc1 | TGI | > 100 µM
CC(C)(C)NC(=S)N/N=C/c1ccccn1 | TGI | > 100 µM

In the following, a different molecule is considered.
Per the record, O=S(=O)(CF)OCCCCOS(=O)(=O)CF has TGI of > 100 µM

###

- Tested on: HOP-92 NSCLC
- test_name: NCI tumour cell line growth inhibition, 48 h
Is TGI at least 30 µM? Then label 1. If not, label 0.

These solved cases illustrate the format of a correct answer.
compound | cat
CN(C)C/C=C/C(=O)Nc1cc2c(Nc3cccc(Cl)c3F)ncnc2cc1OCCOC(F)F | label 0
COc1ccc2[nH]c3c(O)c(-c4c(C)cc5c([nH]c6ccc(OC)cc65)c4O)c(C)cc3c2c1 | label 0
O=c1[nH]c(=O)n(C2OC(CO)C(O)C2O)cc1F (stereo not drawn) | label 1

Query: Does the compound c1cc2c3ccsc3c3sccc3c2s1 have recorded TGI that is 30 µM or more?
Reply: label 1

Query: Hi team, for Nc1ncc2c(n1)-c1ccccc1OC2N1CCOCC1 (stereo not drawn) , is the recorded TGI at or above 30 µM?
Reply: label 1

Query: Identify whether the reported TGI of the following compound is 30 µM or greater: C/C=C1/C(=Cc2[nH]c(C=c3[nH]/c(=C/C4=NC(=O)C(CC)=C4C)c(C)c3CCC(=O)O)c(CCC(=O)O)c2C)NC(=O)C1C (stereo not drawn)
Reply: label 0

###

Reported TGI values are given for each entry in this list.
- Test system: NCI-H23 lung
- test_name: NCI tumour cell line growth inhibition, 48 h

Below: 5 compounds and their reported TGI.
compound | TGI
COc1ccc(N[C@@H]2c3cc4c(cc3C(c3cc(OC)c(O)c(OC)c3)[C@H]3C(=O)OCC32)OCO4)cc1OC (some centres undefined) | 1.92 µM
CCOC(=O)CCSC1=CC(=O)c2nc3ccccc3c3ccnc1c23 | 43.3 µM
Cc1ccc(NC(=O)CCC(=O)C2Cc3ccccc3C2=O)cc1C (centres undefined) | > 100 µM
c1ccc2c(c1)[nH]c1c3ccccc3sc21 | > 100 µM
C1=C\CCCCN2CC[C@H]3[C@H](CCCC/C=C\CCCN4C[C@@H](CCCCC/1)C[C@@H]3C4)C2 | 30.2 µM

Looking up COC1OC(Cn2cc([N+](=O)[O-])nc2C)C(O)C(O)C1O (centres undefined) , I found its TGI recorded as > 100 µM

Sample CCOc1nc2sc3c(c2c(=O)n1CCSSCCn1c(OCC)nc2sc4c(c2c1=O)CCCC4)CCCC3 ; TGI observed: > 100 µM

Noted for O=c1c2ccccc2nc(N/N=C/c2ccc(Cl)cc2)n1-c1ccccc1 : its TGI reads > 100 µM

Record Cc1cn(C2CC(O)C(COC(N)=O)O2)c(=O)[nH]c1=O (centres undefined) . Reported TGI: > 100 µM

Per the record, CCOC(=O)c1cc2c(n1Cc1cc(OC)cc(OC)c1)-c1oncc1CC2 has TGI of > 100 µM

In plain terms, CC1(C)CC[C@]2(CO)CC[C@]3(C)C(=CC[C@@H]4[C@@]5(C)CCNCC(C)(C)[C@@H]5CC[C@]43C)[C@@H]2C1 has a documented TGI of 26.9 µM

Just so you know, measured TGI for CNC(=O)NCCN1N=C(C)/C(=C\c2ccccc2)CC1=O came out at > 100 µM

The value of TGI measured for the compound CCS(=O)(=O)N1CCN(c2ccc(Nc3ncc(C(N)=O)c(NC4CC4)n3)cc2)CC1 turned out to be > 100 µM

C/C(=N/N)c1sc(-c2nc(C)c(/C(C)=N\N)s2)nc1C has a reported TGI of > 100 µM

TGI in this record for Cc1cnc2[nH]c(-c3ccc(Cl)cc3)cc(=O)c2c1 : > 100 µM

// sample CC(O)C1OC(n2ccc(=O)[nH]c2=O)CC1n1cncn1 (centres undefined) , its TGI was > 100 µM

GET /value?item= CCOC(=O)CCc1ccc(NC(=O)/C=C/c2ccc([N+](=O)[O-])o2)cc1 &field=TGI returns 3.33 µM

For reference, reported TGI for Cc1cn2c(/C=C3\C(=O)N(C)c4ccc(Cl)cc43)c(C)nc2s1 stands at 27.3 µM

Measured TGI of Oc1cccc2ccc(Br)nc12 : > 100 µM

COC1(OC)C2C=CC1C([C@](C)(N)CO)C2 (some centres undefined) yielded TGI of > 100 µM

# compound C/C=C1/C(=Cc2[nH]c(C=c3[nH]/c(=C/C4=NC(=O)C(CC)=C4C)c(C)c3CCC(=O)O)c(CCC(=O)O)c2C)NC(=O)C1C (centres undefined) ; its TGI = > 50 µM

###

- Tested on: OVCAR-5 ovarian
- test_name: NCI tumour cell line growth inhibition, 48 h; in the data active means GI50 below about 0.43 µM; inactive means the rest
Bench note: report the call from 1.0 (active), 0.0 (inactive)

compound | cat
CC(=O)c1ccc(Oc2c3ccccc3nc3occc23)cc1 | 0.0
Nc1no[n+]([O-])c1-c1nnc2c(n1)-c1ccccc1C2=O | 0.0
C=C1C(=O)O[C@H]2[C@H]1CC/C(COC(=O)N[C@H](Cc1c[nH]c3ccccc13)C(=O)OC)=C\CC[C@@]1(C)O[C@@H]21 | 0.0

Query: Give the logged outcome of this assay for the following compound: O=C(Nc1ccc(Cl)cc1)N1CCN(c2ccc3nncn3n2)CC1
Reply: 0.0

Query: // return assay outcome for COc1ccc(NC(=O)c2cccc(C3CCc4c(cc(OC)c(OC)c4OC)O3)c2)cc1 (centres undefined)
Reply: 0.0

Query: Outcome logged for COc1ccc(-c2nnc(Nc3nc(O)c(C4=c5cc(Br)ccc5=NC4=O)s3)o2)cc1 in this assay:
Reply: 0.0

Query: Check the results log: what was the call for C=CCN1C(=O)[C@]2(SC1=S)[C@H](c1cccc(Cl)c1)CN(C)[C@]21C(=O)NC2C=CC(Cl)=C[C@H]21 (some centres undefined) ?
Reply: 0.0

Query: Outcome logged for Cn1cc(-c2nc(-c3cn(C)c4ncccc34)cs2)c2ccccc21 in this assay:
Reply: 0.0

Query: Which result was noted for this compound in the test: O=C(CC1Sc2ccccc2NC1=O)NNc1ccc(F)cc1 (centres undefined)
Reply: 0.0

Query: # fetch the recorded call for CC(=O)[CH-]C(=O)c1ccccc1.CC(=O)[CH-]C(=O)c1ccccc1.CC(=O)[CH-]C(=O)c1ccccc1.[Br-].[Zr+4] here
Reply: 0.0

Query: Per the assay record, what outcome was assigned to CC(C)(C)OC(=O)N1Cc2cc3ccccc3nc2C1CO (centres undefined) ?
Reply: 0.0

Query: # lookup: test call for COc1cccc(-c2nn(-c3ccccc3)cc2-c2ccnc(NCCCNS(=O)(=O)c3ccc(C(F)(F)F)cc3)c2)c1
Reply: 0.0

Query: Assay result, entry CN1/C(=C/C=C/c2n(Cc3ccc4ccccc4c3)c(Cl)c(Cl)[n+]2Cc2ccc3ccccc3c2)Oc2ccccc21 — outcome?
Reply: 1.0

Query: GET /call?item= COc1cc(NCCC2CCCCN2)c2ncccc2c1OC (centres undefined) returns the recorded outcome of this test.
Reply: 0.0

Query: Hi, sorry to bother you, what did the test record for CCOC(=O)c1cc(C(=O)c2cc(OC)c(OC)c(OC)c2)n2ccc(-c3cc[n+](CC(=O)c4cc(OC)c(OC)c(OC)c4)cc3)cc12 ?
Reply: 0.0

Query: For NCCCNc1nc2ccccc2c2c(=O)c3cc(F)cc(Cl)c3sc12 , what call appears in the results of this test?
Reply: 0.0

Query: Could you please tell me the result logged for Clc1ccc(N2N=C(c3cccc(Nc4ccncc4)c3)CC2c2ccc(Br)cc2)cc1 (centres undefined) in this assay?
Reply: 0.0

Query: Test call, this compound: C=C1C(O)C2CC(C)(C)C(=O)C2=C(CC(C)C)C12CC2 (centres undefined)
Reply: 0.0

Query: Outcome logged for CC1(C)CN(CCNc2nccc(-c3c(-c4cccc(O)c4)nc4sccn34)n2)S(=O)(=O)N1 in this assay:
Reply: 0.0
